Assignment: determine reported TGI for the given compounds.
- Tested on: SF-295 CNS
- test: NCI tumour cell line growth inhibition, 48 h
Provide only the numeric value, understood in µM.

Tell me the measured TGI of CCN(CC)CCCNc1ccc([N+](=O)[O-])c2nc3ccccc3c(N)c12 , please. 1.87

Query COC(=O)/C=C1\CCC2[C@@H](C(=O)CC3[C@]2(C)CCC[C@@]3(C)C(=O)OC)C1C (stereo not given in full) next 71.8

Query COC(=O)c1c(O)ccc2c1c1c(n2CCc2ccc(OC)c(OC)c2)C(=O)c2ccccc2C1=O next 38

Query CC(C)CCN(CCC(C)C)CC(=O)Nc1ccc(S(=O)(=O)c2ccc(NC(=O)CN(CCC(C)C)CCC(C)C)cc2)cc1 next 16.5

###

- Test system: HCT-116 colon
- test: NCI tumour cell line growth inhibition, 48 h; in the data active means GI50 below about 0.43 µM; inactive means the rest
Parameter call: string, one of 1 (yes) for active, 0 (no) for inactive

Status in this test for Oc1nc(N2CCOCC2)sc1/C=C1\C=Nc2ccccc21 ? 0 (no)

Query CC(=O)O[C@@H]1c2c(c3c(=O)c4cccc(O)c4c(=O)c=3c2=[N+]=[N-])[C@H](OC(C)=O)[C@@H](OC(C)=O)[C@]1(C)O next 1 (yes)

Query COc1ccc(-c2cnc(-c3ccc(OC)cc3)n2-c2cc(OC)c(OC)c(OC)c2)cc1 next 0 (no)

Query CCOc1ccc(-c2nc3ccc(-c4nc5ccc(N6CCN(C)CC6)cc5[nH]4)cc3[nH]2)cc1 next 1 (yes)

Query COC(=O)c1c2c(c(C)[n+]([O-])c1C)C(=O)C(NCc1ccccc1)=CC2=O next 0 (no)

Query COc1ccc(C)c2sc(N(Cc3cccnc3)C(=O)c3ccc(C#N)cc3)nc12 next 0 (no)

Query Clc1ccc(-c2cnc3c(-c4ccnc(N5CCNCC5)c4)cnn3c2)cc1 next 0 (no)

Query CC(C)(C)c1cc(C[P+](c2ccccc2)(c2ccccc2)c2ccccc2)cc(C(C)(C)C)c1O next 1 (yes)

Query Cn1cnc([N+](=O)[O-])c1S(=O)(=O)Oc1ccc(Cl)cc1 next 0 (no)

###

- System: LOX IMVI melanoma
- test: NCI tumour cell line growth inhibition, 48 h
property: TGI (µM)
Provide only the numeric value, understood in µM.

Tell me the measured TGI of COc1cc([C@@H]2c3cc4c(cc3[C@@H](NCc3ccccc3F)C3COC(=O)[C@@H]32)OCO4)cc(OC)c1O (some centres undefined) , please. 16.7

Query Cc1ccc(NC(=O)C2C3C=CC(O3)C2C(=O)O)cc1 (centres undefined) next 47.4

Query CCN(CC)CCCNc1ccc([N+](=O)[O-])c2nc3ccccc3c(N)c12 next 2.14

Query COc1ccc(C(=O)/C=C/c2cc(-c3ccc(OC)c(OC)c3)n[nH]2)cc1OC next 2.7

Query CC(C)[C@@]12C[C@@H](OC(=O)C3CO3)[C@@](C)(O1)[C@@H]1CC[C@@H](C)[C@H]1[C@@H]2OC(=O)/C=C/c1ccccc1 (some centres undefined) next 36.7

###

- System: SR leukemia
- test: NCI tumour cell line growth inhibition, 48 h
property: log10(TGI) (log10 of the value in µM)
Please note: log10 values; quantity TGI; unit µM.

Tell me the measured log10(TGI) of CCOC(=O)c1c(NN2CCN(CC(F)(F)F)CC2)oc(/C=C2\C=Nc3ncccc32)c1O , please. 0.58

Query COC(=O)c1c2c(c(C)[n+]([O-])c1C)C(=O)C(NCc1ccccc1)=CC2=O next 1.50

Query CCN(CC)CCCNc1ccc([N+](=O)[O-])c2nc3ccccc3c(N)c12 next 0.66

Query Cn1cnc([N+](=O)[O-])c1Sc1n[nH]c(-c2ccc(Cl)cc2)n1 next 1.62

Query O=C1N[C@H]2C(=O)c3c(Br)sc(Br)c3[C@H]2O1 next 0.80

Query CCOc1ccc(-c2nc3ccc(-c4nc5ccc(N6CCN(C)CC6)cc5[nH]4)cc3[nH]2)cc1 next 0.43

Query COc1cc2c3c(n(CCCN=[N+]=[N-])c(=O)c2cc1OC)-c1ccc(F)cc1C3=O next 0.43

Query CCCc1cn2c(/C=N/N=C(N)N)c(-c3cc([N+](=O)[O-])c(Cl)cc3Cl)nc2s1 next 0.47

Query CCCCN(CCCC)P(=O)(Oc1ccccc1)Oc1ccccc1 next 1.84

Query CC(C)CCN(CCC(C)C)CC(=O)Nc1ccc(S(=O)(=O)c2ccc(NC(=O)CN(CCC(C)C)CCC(C)C)cc2)cc1 next 0.72
